Below is a list of entries, each paired with its recorded IC50 value.
Biological target: UniProtKB Q9H0H5
Sequence (Q9H0H5 whole entry): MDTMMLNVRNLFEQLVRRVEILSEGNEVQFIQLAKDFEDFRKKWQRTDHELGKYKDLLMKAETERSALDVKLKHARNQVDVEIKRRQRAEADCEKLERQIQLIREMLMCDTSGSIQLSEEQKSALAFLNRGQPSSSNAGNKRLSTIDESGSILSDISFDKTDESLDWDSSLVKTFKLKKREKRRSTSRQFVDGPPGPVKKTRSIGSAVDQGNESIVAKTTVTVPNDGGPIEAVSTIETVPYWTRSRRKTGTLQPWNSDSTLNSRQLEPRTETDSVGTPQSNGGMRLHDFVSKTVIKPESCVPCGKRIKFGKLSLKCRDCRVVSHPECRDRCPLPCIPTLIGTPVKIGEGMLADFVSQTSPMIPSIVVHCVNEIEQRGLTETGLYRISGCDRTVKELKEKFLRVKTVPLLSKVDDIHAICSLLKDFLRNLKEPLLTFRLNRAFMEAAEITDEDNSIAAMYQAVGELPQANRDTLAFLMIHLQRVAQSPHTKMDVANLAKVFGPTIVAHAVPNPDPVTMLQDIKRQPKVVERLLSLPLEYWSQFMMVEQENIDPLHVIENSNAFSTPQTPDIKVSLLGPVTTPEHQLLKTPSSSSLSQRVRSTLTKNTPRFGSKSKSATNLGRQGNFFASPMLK
Assay: MgcRacGAP GTPase-activating activity inhibitors, confirmation, biochemical, ADP Hunter fluorescence, primary and confirmatory (AID 624330)
Type: functional
The source made the active and inactive calls. No rule for the calls is given here.
recorded.metric: IC50

1) Nc1ccccc1Nc1cccc(C(F)(F)F)c1; 89 µM (active)
2) CC(C(=O)NCC(=O)Nc1ccc(F)c(F)c1F)N1CCN(c2ccc(O)cc2)CC1 (stereo unspecified); 42.5 µM (active)
3) COc1cc(-c2nc3cnccn3c2Nc2c(C)cccc2C)ccc1O; 46.4 µM (active)
4) COc1cc(/C=N/NC(=O)C2CCN(CC(O)COCc3ccccc3)CC2)ccc1O (stereo unspecified); 31.5 µM (active)
5) COc1cc(/C=N\NC(=O)CC(=O)NCCc2ccccc2)ccc1O; 27.4 µM (active)
6) Cc1cccn2c(NCc3ccc4c(c3)OCO4)c(-c3ccc(O)cc3)nc12; 68.7 µM (active)
7) COc1cc(CNCc2cc(OC)c(OC)c(OC)c2)cc(OC)c1; 203 µM (active)
8) CC(C)Oc1ccc(OCCn2c(S)nc3c(N)ncnc32)cc1; 95.3 µM (active)
9) O=C(COc1ccccc1)NCC(=O)N/N=C/c1ccc(O)cc1O; 69.4 µM (active)
10) Cc1cc(OCc2nc3ccccc3s2)ccc1N; 60.7 µM (active)
11) CN=C(S)Nc1ccc(Nc2ccccc2)cc1; 64.6 µM (active)
